Tested on: nitrites and nitrates (NOx-)
Experiment: Measurement of nitrates/nitrites (NOx-) in brain regions after the morphine abstinence experiment
Format: in vivo, Wistar rats
Conditions: Morphine + compound, 3 x 20 mg/kg intramuscularly; one value for the three compounds
Procedure: After the above experiments the rat brains were isolated and immediately placed in the ice cold 0.9% solution of sodium chloride. […] The supernatants of brain deproteinized at 100° C. were placed in a nitrite recovery system containing 0.125 unit/ml of nitrate reductase, 25 μM NADPH and 25 μM FAD prepared in 20 mM Tris-HCl buffer pH 7.6 and incubated for 30 minutes at 37° C. […] For stabilization of fluorescence of the formed naphthotriazole, 280 mM NaOH was added. […]
Recorded Nitrites, brainstem for the following molecules

molecule | Nitrites, brainstem
O=c1[nH][nH]c(=O)c2nccnc12.[Li] [Compound 26] | 7.07 ± 0.85 nmol/mg of protein
Nc1cccc2c(=O)n([C@@H]3O[C@H](CO)[C@@H](O)[C@H]3O)[nH]c(=O)c12.[Na] [Compound 10] | 6.99 ± 0.82 nmol/mg of protein
O=c1[nH][nH]c(=O)c2ncncc12.[Li] [Compound 35] | 6.87 ± 0.81 nmol/mg of protein
O=c1[nH]n([C@@H]2O[C@H](CO)[C@@H](O)[C@H]2O)c(=O)c2ncccc12.[Na] [Compound 1] | 6.57 ± 0.72 nmol/mg of protein
Nc1ccc2c(=O)n([C@@H]3O[C@H](CO)[C@@H](O)[C@H]3O)[nH]c(=O)c2c1.[Na] [Compound 11] | 6.99 ± 0.82 nmol/mg of protein

###

Activity of NOS, hypothalamus overview
Tested on: nitric oxide synthase (NOS)
Assay: Nitric oxide synthase activity in brain regions, radiometric [3H]L-citrulline method
Type: in vivo, Wistar rats
Details: Morphine + compound, 3 x 20 mg/kg intramuscularly; one value for the three compounds

structure | Activity of NOS, hypothalamus
O=c1[nH][nH]c(=O)c2ncncc12.[Li] | 5.56 ± 0.34 nmol/min/mg of protein
O=c1[nH]n([C@@H]2O[C@H](CO)[C@@H](O)[C@H]2O)c(=O)c2ncccc12.[Na] | 5.26 ± 0.28 nmol/min/mg of protein
Nc1ccc2c(=O)n([C@@H]3O[C@H](CO)[C@@H](O)[C@H]3O)[nH]c(=O)c2c1.[Na] | 5.36 ± 0.33 nmol/min/mg of protein
O=c1[nH]n([C@@H]2O[C@H](CO)[C@@H](O)[C@H]2O)c(=O)c2nccc(O)c12.[Na] | 5.26 ± 0.28 nmol/min/mg of protein
O=C([O-])c1ccc2c(=O)[nH][nH]c(=O)c2c1.O=C([O-])c1ccc2c(=O)[nH][nH]c(=O)c2c1.[Na+].[Na+] | 5.36 ± 0.33 nmol/min/mg of protein
O=c1[nH]n([C@@H]2O[C@H](CO)[C@@H](O)[C@H]2O)c(=O)c2nc(Br)ncc12.[Na] | 5.56 ± 0.34 nmol/min/mg of protein
O=c1[nH][nH]c(=O)c2ncccc12.[Li] | 5.26 ± 0.28 nmol/min/mg of protein
Nc1cccc2c(=O)n([C@@H]3O[C@H](CO)[C@@H](O)[C@H]3O)[nH]c(=O)c12.[Na] | 5.36 ± 0.33 nmol/min/mg of protein

###

Tested on: nitrites and nitrates (NOx-)
Experiment: Measurement of nitrates/nitrites (NOx-) in brain regions after the morphine abstinence experiment
Format: in vivo, Wistar rats
Details: Groups Nos. 3-14, compound without morphine, 3 x 20 mg/kg intramuscularly; one value for all 12 compounds
property.name: Nitrites, cerebellum

compound | subject.of.test | experimental.result
O=c1[nH][nH]c(=O)c2c(Br)ncnc12.[K] [Compound 37] | nitrites and nitrates (NOx-) | 6.66 ± 0.63 nmol/mg of protein
O=c1[nH][nH]c(=O)c2nccnc12.[Li] [Compound 26] | nitrites and nitrates (NOx-) | 6.66 ± 0.63 nmol/mg of protein
Nc1cccc2c(=O)n([C@@H]3O[C@H](CO)[C@@H](O)[C@H]3O)[nH]c(=O)c12.[Na] [Compound 10] | nitrites and nitrates (NOx-) | 6.66 ± 0.63 nmol/mg of protein
O=c1[nH]n([C@@H]2O[C@H](CO)[C@@H](O)[C@H]2O)c(=O)c2ncccc12.[Na] [Compound 1] | nitrites and nitrates (NOx-) | 6.66 ± 0.63 nmol/mg of protein
O=c1[nH]n([C@@H]2O[C@H](CO)[C@@H](O)[C@H]2O)c(=O)c2nc(Br)ncc12.[Na] [Compound 32] | nitrites and nitrates (NOx-) | 6.66 ± 0.63 nmol/mg of protein

###

Test system: nitrites and nitrates (NOx-)
Assay: Measurement of nitrates/nitrites (NOx-) in brain regions after the morphine abstinence experiment
Type: in vivo, Wistar rats
Settings: Groups Nos. 3-14, compound without morphine, 3 x 20 mg/kg intramuscularly; one value for all 12 compounds

structure | Nitrites, cerebellum
O=C([O-])c1cnc2c(=O)[nH]n([C@@H]3O[C@H](CO)[C@@H](O)[C@H]3O)c(=O)c2n1.O=C([O-])c1cnc2c(=O)[nH]n([C@@H]3O[C@H](CO)[C@@H](O)[C@H]3O)c(=O)c2n1.[Na+].[Na+] | 6.66 ± 0.63 nmol/mg of protein
O=c1[nH]n([C@@H]2O[C@H](CO)[C@@H](O)[C@H]2O)c(=O)c2nccc(O)c12.[Na] | 6.66 ± 0.63 nmol/mg of protein
Nc1ccc2c(=O)n([C@@H]3O[C@H](CO)[C@@H](O)[C@H]3O)[nH]c(=O)c2c1.[Na] | 6.66 ± 0.63 nmol/mg of protein

###

Tested on: nitric oxide synthase (NOS)
Experiment: Nitric oxide synthase activity in brain regions, radiometric [3H]L-citrulline method
Assay type: in vivo, Wistar rats
Details: Morphine + compound, 3 x 20 mg/kg intramuscularly; one value for the three compounds

structure | Activity of NOS, midbrain
O=c1[nH]n([C@@H]2O[C@H](CO)[C@@H](O)[C@H]2O)c(=O)c2nc(Br)ncc12.[Na] | 1.89 ± 0.27 nmol/min/mg of protein
O=c1[nH][nH]c(=O)c2c(Br)ncnc12.[K] | 1.89 ± 0.27 nmol/min/mg of protein
Nc1ccc2c(=O)n([C@@H]3O[C@H](CO)[C@@H](O)[C@H]3O)[nH]c(=O)c2c1.[Na] | 1.99 ± 0.29 nmol/min/mg of protein
O=c1[nH]n([C@@H]2O[C@H](CO)[C@@H](O)[C@H]2O)c(=O)c2ncccc12.[Na] | 1.83 ± 0.23 nmol/min/mg of protein
O=C([O-])c1cnc2c(=O)[nH]n([C@@H]3O[C@H](CO)[C@@H](O)[C@H]3O)c(=O)c2n1.O=C([O-])c1cnc2c(=O)[nH]n([C@@H]3O[C@H](CO)[C@@H](O)[C@H]3O)c(=O)c2n1.[Na+].[Na+] | 2.03 ± 0.31 nmol/min/mg of protein
O=C([O-])c1ccc2c(=O)[nH][nH]c(=O)c2c1.O=C([O-])c1ccc2c(=O)[nH][nH]c(=O)c2c1.[Na+].[Na+] | 1.99 ± 0.29 nmol/min/mg of protein
Nc1cnc2c(=O)n([C@@H]3O[C@H](CO)[C@@H](O)[C@H]3O)[nH]c(=O)c2n1.[Na] | 2.03 ± 0.31 nmol/min/mg of protein
O=c1[nH][nH]c(=O)c2nccnc12.[Li] | 2.03 ± 0.31 nmol/min/mg of protein
O=c1[nH]n([C@@H]2O[C@H](CO)[C@@H](O)[C@H]2O)c(=O)c2nccc(O)c12.[Na] | 1.83 ± 0.23 nmol/min/mg of protein
Nc1cccc2c(=O)n([C@@H]3O[C@H](CO)[C@@H](O)[C@H]3O)[nH]c(=O)c12.[Na] | 1.99 ± 0.29 nmol/min/mg of protein
O=c1[nH][nH]c(=O)c2ncncc12.[Li] | 1.89 ± 0.27 nmol/min/mg of protein
O=c1[nH][nH]c(=O)c2ncccc12.[Li] | 1.83 ± 0.23 nmol/min/mg of protein

###

Tested on: apomorphine-dependent erection
Test: Apomorphine-dependent erection in low-potency rats
Assay type: in vivo, Wistar rats
Conditions: compound 5 x 10 mg/kg intraperitoneally every 48 hours + apomorphine 0.1 mg/kg subcutaneously; 20 minutes monitoring; one value for the two compounds of the line
property.name: Latent period of first erection (min)

structure | property.name | experimental.result
O=c1[nH]n([C@@H]2O[C@H](CO)[C@@H](O)[C@H]2O)c(=O)c2nccnc12.[Na] | Latent period of first erection | 5.24
Nc1ccnc2c(=O)n([C@@H]3O[C@H](CO)[C@@H](O)[C@H]3O)[nH]c(=O)c12.[Na] | Latent period of first erection | 5.21
Nc1ncnc2c(=O)n([C@@H]3O[C@H](CO)[C@@H](O)[C@H]3O)[nH]c(=O)c12.[Na] | Latent period of first erection | 5.12
O=c1[nH]n([C@@H]2O[C@H](CO)[C@@H](O)[C@H]2O)c(=O)c2ccccc12.[Na] | Latent period of first erection | 5.09
Nc1cccc2c(=O)[nH][nH]c(=O)c12.[Na] | Latent period of first erection | 5.09
Nc1ncc2c(=O)[nH][nH]c(=O)c2n1.[Na] | Latent period of first erection | 5.12
O=c1[nH][nH]c(=O)c2ncccc12.[K] | Latent period of first erection | 5.21
O=c1[nH][nH]c(=O)c2nccnc12.[Li] | Latent period of first erection | 5.24

Just for reference, patent US7776833B2 is where these values come from.
